Please respond with reported Senescent Cells (%) HCA passage 50 for every item in the list.
test system: Human diploid fibroblasts HCA; assay: Anti-aging activity: senescence-associated beta-galactosidase in human fibroblasts; assay type: cell-based; settings: passage 50, cells expressing senescence-associated beta-galactosidase
Numbers only, in %.

Provide Senescent Cells (%) HCA passage 50 values for the following items, in order.
1. Nc1nc(Nc2ccc(O)cc2)c2nc[nH]c2n1 [2-amino-(4-hydroanilino)purine]
2. Oc1ccc(Nc2nc(Cl)nc3nc[nH]c23)cc1 [Compound 10, 2-chloro-6-(4-hydroxyanilino)purine]
3. COc1cccc(Nc2nc(N)nc3nc[nH]c23)c1

[4, 6, 4]

List the reported Senescent Cells (%) HCA passage 50 of each compound below.
1. COc1ccc(Nc2nc(Cl)nc3nc[nH]c23)cc1
2. CSc1nc(Nc2ccc(O)cc2)c2[nH]cnc2n1 [2-methylthio-6-(4-hydroxyanilino)purine]
3. COc1cc(Nc2nc(Cl)nc3nc[nH]c23)ccc1O

3
6
6

Working through the 2 compounds below one at a time, give Senescent Cells (%) HCA passage 50 for each.
1. c1coc(CNc2ncnc3nc[nH]c23)c1 [Kinetin, 6-furfurylaminopurine, reference compound]
2. COc1cccc(Nc2nc(Cl)nc3nc[nH]c23)c1

1: 5; 2: 5
